Target: FAK (Mus musculus)
Sequence (P34152 2-1052): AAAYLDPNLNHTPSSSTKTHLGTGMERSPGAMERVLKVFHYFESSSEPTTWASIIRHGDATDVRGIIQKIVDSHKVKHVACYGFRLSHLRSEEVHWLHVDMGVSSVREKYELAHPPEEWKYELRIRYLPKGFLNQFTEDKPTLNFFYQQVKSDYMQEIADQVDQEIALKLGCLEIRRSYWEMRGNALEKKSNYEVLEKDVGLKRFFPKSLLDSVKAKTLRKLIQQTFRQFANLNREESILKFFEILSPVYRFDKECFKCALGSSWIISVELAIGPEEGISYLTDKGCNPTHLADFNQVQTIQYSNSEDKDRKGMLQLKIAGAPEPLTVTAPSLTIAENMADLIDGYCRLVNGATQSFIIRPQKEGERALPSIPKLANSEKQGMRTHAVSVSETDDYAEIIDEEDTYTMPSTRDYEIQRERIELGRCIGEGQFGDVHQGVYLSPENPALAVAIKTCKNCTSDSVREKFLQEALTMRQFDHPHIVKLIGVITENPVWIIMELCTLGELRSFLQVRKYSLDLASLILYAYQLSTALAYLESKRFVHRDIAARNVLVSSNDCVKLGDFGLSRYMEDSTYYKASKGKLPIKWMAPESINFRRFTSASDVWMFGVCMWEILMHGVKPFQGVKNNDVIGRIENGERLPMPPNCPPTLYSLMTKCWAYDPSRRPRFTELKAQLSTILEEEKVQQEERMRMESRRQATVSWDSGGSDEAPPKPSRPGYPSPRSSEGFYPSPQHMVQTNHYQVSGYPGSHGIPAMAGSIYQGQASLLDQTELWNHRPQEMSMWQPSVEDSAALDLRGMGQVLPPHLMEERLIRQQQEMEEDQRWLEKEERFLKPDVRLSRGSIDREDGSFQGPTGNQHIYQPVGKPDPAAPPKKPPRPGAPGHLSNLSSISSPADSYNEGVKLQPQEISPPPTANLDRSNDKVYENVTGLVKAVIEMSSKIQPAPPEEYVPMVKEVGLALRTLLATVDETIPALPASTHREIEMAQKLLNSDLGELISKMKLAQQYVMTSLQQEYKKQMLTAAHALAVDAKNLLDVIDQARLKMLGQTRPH
Assay: Phos IC50 (phosphorylation)
pIC50: −log10 of the molar value.
Outcome label depends on pIC50 relative to 6: at/above gives Condition met, below gives Condition not met.

CNS(=O)(=O)c1ccccc1Nc1nc(Nc2cc(N3CCOCC3)ccc2OC)ncc1Cl; Condition not met
CNC(=O)c1ccccc1Nc1nc(Nc2ccc(N3CCN(C)CC3)cc2OC)ncc1Cl; Condition met
COc1cc(N2CCOCC2)ccc1Nc1ncc(Cl)c(Nc2ccccc2S(=O)(=O)C2CCCC2)n1; Condition met
CCOc1ccc(N2CCOCC2)cc1Nc1ncc(Br)c(Nc2ccccc2S(=O)(=O)NC)n1; Condition met
COc1cc(OCCN2CCN(C)CC2)ccc1Nc1ncc(Cl)c(Nc2ccccc2S(=O)(=O)NC(C)C)n1; Condition met

## Task Does the reported pIC50 for CCCS(=O)(=O)c1ccccc1Nc1nc(Nc2ccc(N3CCC(O)C3)cc2OC)ncc1Cl (centres unmarked) fall at or above the 6 mark?
## Result Condition met

###

Biological target: FAK (Mus musculus)
Experiment: Phos IC50 (phosphorylation)
test.readout: IC50

COc1cc(F)ccc1Nc1ncc(Cl)c(Nc2ccccc2S(=O)(=O)NCC(C)C)n1; 1000 nM

Below: the item to evaluate.
## Task Reported IC50 for CNS(=O)(=O)c1ccccc1Nc1nc(Nc2cc(N3CCN(C(C)=O)CC3)ccc2OC)ncc1Cl : what is it?
## Result 1000 nM

###

Biological target: Focal Adhesion Kinase (FAK) (Homo sapiens)
Assay: FAK assay system (Focal Adhesion Kinase inhibition)
Format: biochemical
Conditions: read-out: FAK IC50
test.readout: pIC50
// pIC50 is dimensionless: -log10 of concentration (M)

Worked cases, pIC50 given:
COc1cc(NCC(C)(C)CO)ccc1Nc1ncc(Cl)c(Nc2ccccc2S(=O)(=O)NC(C)C)n1 [Example 19-22]; 8.47
CNC(=O)c1cc(N2CCN(C)CC2)ccc1Nc1nc(Nc2cccc3c2ccn3C)ncc1Cl [Example 35-2]; 8.21
CNS(=O)(=O)c1ccccc1Nc1nc(Nc2cc(F)ccc2OC)ncc1Cl [Example 20-23]; 7.52
CCS(=O)(=O)c1ccccc1Nc1nc(Nc2ccc(-n3cncn3)cc2OC)ncc1Cl [Example 27-3]; 8.20
CCN1CCN(c2ccc(Nc3ncc(Cl)c(Nc4ccccc4S(=O)(=O)C(C)C)n3)c(OC)c2)CC1 [Example 28-12]; 8.49
COCC1CCN(c2ccc(Nc3ncc(Cl)c(Nc4ccccc4S(=O)(=O)C(C)C)n3)c(OC)c2)CC1 [Example 28-10]; 7.70
COc1cc(N2CCOCC2)ccc1Nc1ncc(Cl)c(Nc2ccccc2S(=O)(=O)N2CCOCC2)n1 [Example 14-7]; 8.12
CCCOc1ccc(OC)cc1Nc1ncc(Br)c(Nc2ccccc2S(=O)(=O)NC)n1 [Example 3-63]; 7.57
CNS(=O)(=O)c1ccccc1Nc1nc(Nc2cc(OCCN3CCOCC3)ccc2OC)ncc1Cl [Example 20-21]; 7.59
CNS(=O)(=O)c1ccccc1Nc1nc(Nc2ccc(OC)nc2OC)ncc1Br [Example 3-50]; 7.89

## Task Reported pIC50 for CCS(=O)(=O)c1ccccc1Nc1nc(Nc2ccc(N3CCC(N4CCN(C)CC4)CC3)cc2OC)ncc1Cl [Example 27-9] : what is it?
## Result 8.38

## Task Reported pIC50 for COc1cc(N2CCCC(C(N)=O)C2)ccc1Nc1ncc(Cl)c(Nc2ccccc2S(=O)(=O)C(C)C)n1 (stereo not shown) [Example 28-1] : what is it?
## Result 7.92

## Task Reported pIC50 for CNS(=O)(=O)c1ccccc1Nc1nc(Nc2ccc(N3CCS(=O)(=O)CC3)cc2OC)ncc1Br [Example 3-44] : what is it?
## Result 7.96

## Task Reported pIC50 for CNS(=O)(=O)c1ccccc1Nc1nc(Nc2ccc(OC3CCN(C(C)C)C3)cc2OC)ncc1Cl (stereo not shown) [Example 20-28] : what is it?
## Result 8.04

## Task Reported pIC50 for CNS(=O)(=O)c1ccccc1Nc1nc(Nc2cc(-c3ccc(OC)cc3)ccc2C)ncc1Br [Example 3-25] : what is it?
## Result 7.66

###

Molecular target: Focal Adhesion Kinase (FAK) (Homo sapiens, UniProt Q05397)
Sequence (Q05397 384-706): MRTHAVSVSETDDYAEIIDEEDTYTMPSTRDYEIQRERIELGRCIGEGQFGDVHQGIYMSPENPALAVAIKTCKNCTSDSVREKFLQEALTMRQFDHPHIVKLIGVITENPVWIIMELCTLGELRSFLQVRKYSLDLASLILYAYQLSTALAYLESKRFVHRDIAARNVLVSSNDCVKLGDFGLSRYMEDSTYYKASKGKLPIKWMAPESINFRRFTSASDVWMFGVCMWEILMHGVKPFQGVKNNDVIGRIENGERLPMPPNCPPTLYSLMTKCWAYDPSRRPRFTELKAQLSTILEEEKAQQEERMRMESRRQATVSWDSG
Assay: FAK assay system (Focal Adhesion Kinase inhibition)
Assay type: biochemical
Conditions: FAK assay system; read-out: FAK inhibition IC50
test.readout: IC50

## Task Fill in the recorded IC50 for this compound, with Focal Adhesion Kinase (FAK) (Homo sapiens, UniProt Q05397) as test system: CNS(=O)(=O)c1ccccc1Nc1nc(Nc2cc(OC)c(OC)cc2C)ncc1Br
## Result 1 to 5 nM

###

IC50 overview
Target: Focal Adhesion Kinase (FAK) (Homo sapiens, UniProt Q05397)
Test: FAK assay system (Focal Adhesion Kinase inhibition)
Assay type: biochemical
Details: FAK IC50
Numbers only; they are read as nM.

CNS(=O)(=O)c1ccccc1Nc1nc(Nc2ccc(-n3ccnc3C)cc2OC)ncc1Br [Example 3-83]; 20
CNS(=O)(=O)c1ccccc1Nc1nc(Nc2cccc3c2CCC3)ncc1Br [Example 3-12]; 5.4
CCNC1CCN(c2ccc(Nc3ncc(Cl)c(Nc4ccccc4S(=O)(=O)NC(C)C)n3)c(OC)c2)C1 (stereo not shown) [Example 19-2]; 1.6

Below: the item to evaluate.
## Task Reported IC50 for COc1cc([N+](=O)[O-])ccc1Nc1ncc(Cl)c(Nc2ccccc2S(=O)(=O)C(C)C)n1 [Example 28-7] : what is it?
## Result 47

###

Target: FAK (Mus musculus)
Experiment: Phos IC50 (phosphorylation)
test.readout: IC50 (nM)
Numbers only; they are read as nM.

Worked cases, IC50 given:
CNC(=O)c1ccccc1Nc1nc(Nc2cccc3[nH]ccc23)ncc1Cl; 500
COc1cc(N2CCC(N3CCNCC3)CC2)ccc1Nc1ncc(Cl)c(Nc2ccccc2S(=O)(=O)C(C)C)n1; 40
CNS(=O)(=O)c1ccccc1Nc1nc(Nc2ccc(C)cc2F)ncc1Br; 530
CCCS(=O)(=O)c1ccccc1Nc1nc(Nc2ccc(N3CCC(N4CCCC4)CC3)cc2OC)ncc1Cl; 310
CNC(=O)c1ccccc1Nc1nc(Nc2ccc(N3CCN4CCOC[C@@H]4C3)cc2OC)ncc1Cl; 200

## Task Reported IC50 for COc1cc(N2CCC(N3CCCCC3)CC2)ccc1Nc1ncc(Cl)c(Nc2ccccc2S(=O)(=O)NC(C)C)n1 : what is it?
## Result 300

## Task Reported IC50 for CNS(=O)(=O)c1ccccc1Nc1nc(Nc2cccc3c2ccn3CCCN2CCOCC2)ncc1Cl : what is it?
## Result 100

###

Target: IGF-IR (Homo sapiens)
Sequence (P08069 31-1367): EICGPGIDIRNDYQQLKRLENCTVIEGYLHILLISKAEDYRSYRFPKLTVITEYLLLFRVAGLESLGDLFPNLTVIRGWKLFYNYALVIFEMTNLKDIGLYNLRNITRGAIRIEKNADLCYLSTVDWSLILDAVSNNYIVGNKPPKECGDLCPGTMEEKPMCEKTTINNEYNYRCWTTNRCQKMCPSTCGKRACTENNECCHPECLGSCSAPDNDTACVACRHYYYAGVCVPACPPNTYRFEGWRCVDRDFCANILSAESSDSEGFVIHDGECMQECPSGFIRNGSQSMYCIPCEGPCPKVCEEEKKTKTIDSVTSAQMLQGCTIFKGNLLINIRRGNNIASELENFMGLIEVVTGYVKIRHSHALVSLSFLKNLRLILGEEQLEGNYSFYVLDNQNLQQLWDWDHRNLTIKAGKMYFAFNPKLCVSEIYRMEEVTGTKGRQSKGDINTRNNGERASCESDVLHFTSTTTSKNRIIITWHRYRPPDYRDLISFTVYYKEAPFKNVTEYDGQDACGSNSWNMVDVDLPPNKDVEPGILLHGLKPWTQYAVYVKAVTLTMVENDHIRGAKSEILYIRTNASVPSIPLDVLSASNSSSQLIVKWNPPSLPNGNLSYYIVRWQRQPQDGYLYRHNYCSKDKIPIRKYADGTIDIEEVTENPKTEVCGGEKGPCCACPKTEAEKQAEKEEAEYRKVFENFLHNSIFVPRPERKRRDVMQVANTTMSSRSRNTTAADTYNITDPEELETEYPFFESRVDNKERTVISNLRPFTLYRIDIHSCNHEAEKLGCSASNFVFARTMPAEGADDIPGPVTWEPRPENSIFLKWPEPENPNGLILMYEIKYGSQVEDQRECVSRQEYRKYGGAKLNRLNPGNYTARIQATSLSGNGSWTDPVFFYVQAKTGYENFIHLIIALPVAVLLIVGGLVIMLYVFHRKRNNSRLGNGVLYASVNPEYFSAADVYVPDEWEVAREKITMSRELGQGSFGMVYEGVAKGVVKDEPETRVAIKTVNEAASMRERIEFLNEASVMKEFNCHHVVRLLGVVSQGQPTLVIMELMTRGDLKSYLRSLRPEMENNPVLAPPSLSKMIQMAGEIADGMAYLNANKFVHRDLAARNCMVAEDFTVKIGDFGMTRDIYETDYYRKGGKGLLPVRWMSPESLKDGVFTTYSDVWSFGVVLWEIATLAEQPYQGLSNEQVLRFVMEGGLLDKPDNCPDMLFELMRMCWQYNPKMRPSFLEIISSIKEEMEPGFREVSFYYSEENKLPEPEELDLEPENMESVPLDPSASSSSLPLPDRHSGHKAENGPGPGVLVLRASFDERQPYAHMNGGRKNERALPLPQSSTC
Assay: Cellular Capture ELISA of IGF-I induced autophosphorylation of the IGF-IR
Details: read-out: IGF-1R IC50
pIC50: −log10 of the molar value.
Outcome label depends on pIC50 relative to 7: at/above gives Met, below gives Not met.

Solved cases below.
CCCS(=O)(=O)c1ccccc1Nc1nc(Nc2ccc(N3CCC(C(N)=O)CC3)cc2OC)ncc1Cl; Not met
COc1cc(OC2CCN(C)C2)ccc1Nc1ncc(Cl)c(Nc2ccccc2S(=O)(=O)NC(C)C)n1 (stereo not drawn); Not met

Here's the next entry for you.
## Task Does the reported pIC50 for CNS(=O)(=O)c1ccccc1Nc1nc(Nc2cc(F)ccc2OC)ncc1Br fall at or above the 7 mark?
## Result Not met

###

Biological target: FAK (Mus musculus)
Test: Phos IC50 (phosphorylation)
pIC50 overview
// pIC50 is dimensionless: -log10 of concentration (M)

Worked cases, pIC50 given:
CCCS(=O)(=O)c1ccccc1Nc1nc(Nc2ccc(N3CCN(C(C)=O)CC3)cc2OC)ncc1Cl [Example 26-2]; 7.52
CCC(C)NS(=O)(=O)c1ccccc1Nc1nc(Nc2ccc(N3CCN(C)CC3)cc2OC)ncc1Cl (stereo not shown) [Example 21-1]; 7.15
CNS(=O)(=O)c1ccccc1Nc1nc(Nc2cccc3c2ccn3CCCN2CCN(C)CC2)ncc1Cl [Example 20-9]; 6.52
CCCS(=O)(=O)c1ccccc1Nc1nc(Nc2ccc(N3CC(C)N(C(C)=O)C(C)C3)cc2OC)ncc1Cl (stereo not shown) [Example 26-7]; 6.30
CNS(=O)(=O)c1ccccc1Nc1nc(Nc2cc(N3CCOCC3)ccc2OC)ncc1Br [Example 3-32]; 6.74
CNS(=O)(=O)c1ccccc1Nc1nc(Nc2ccccc2OC(F)(F)F)ncc1Cl [Example 20-3]; 6.40
CNC(=O)c1c(C)cccc1Nc1nc(Nc2ccc(OC3CCN(C)CC3)cc2OC)ncc1Cl [Example 10-1]; 6.00
CNS(=O)(=O)c1ccccc1Nc1nc(Nc2cccc(OC)c2OC)ncc1Br [Example 3-14]; 6.40
CCCS(=O)(=O)c1ccccc1Nc1nc(Nc2ccc(OCCN3CCCC3=O)cc2OC)ncc1Cl [Example 26-18]; 5.22
COc1cc(-n2cncn2)ccc1Nc1ncc(Cl)c(Nc2ccccc2S(=O)(=O)C(C)C)n1 [Example 28-4]; 6.52

## Task Reported pIC50 for COc1cc(NC2CCN(C)CC2)ccc1Nc1ncc(Cl)c(Nc2ccccc2S(=O)(=O)NC(C)C)n1 [Example 19-32] : what is it?
## Result 6.70

## Task Reported pIC50 for CCCS(=O)(=O)c1ccccc1Nc1nc(Nc2ccc(N3CCN(C(C)=O)C(C)(C)C3)cc2OC)ncc1Cl [Example 26-11] : what is it?
## Result 6.40
